Hello, the source for this data is paper PMC12470260, in case you need it.

target: AoraGOBP1; assay: Fluorescence competitive binding assay (1-NPN probe) with rAoraGOBP1; parameters: species or system Adoxophyes orana; details: competitive displacement of 1-NPN, 2 μM protein, 20 mM Tris-HCl pH 7.4, mean ± S.E.M.; read-out: Ki (μM) GOBP1
QUANTITY_NAME: Ki (µM)

C=CC(O)CC (stereo not drawn); 10.2
CCOC(=O)C(C)CC (stereo not drawn) [Ethyl 2-methylbutanoate]; 11.8
CC(C)=CCCC(C)=CC=O (mixture of isomers); 11.7
CC/C=C\CCOC(=O)CC(C)C [(Z)-3-Hexen-1-yl 3-methylbutanoate]; 6.21
CCCCC/C=C\C=C\C(=O)OCC; 5.08
CCCCOC(=O)c1ccccc1C(=O)OCCCC [Dibutyl phthalate]; 10.3

P = CCCCCCCCCC=O
Q = COC(=O)c1ccccc1O [Methyl salicylate]
R = CC(C)C=O
Ask | Hey, can you sort those compounds up there by Ki, smallest first? Write out the labels following the order that was asked for.
Reply | P, Q, R
(P: 0.78 µM, Q: 4.41 µM, R: 11.9 µM)

* * *

target: AoraGOBP2; assay: Fluorescence competitive binding assay (1-NPN probe) with rAoraGOBP2; conditions: fluorescent probe titration, 2 μM protein, pH 7.4
QUANTITY_NAME: Kd (nM)
Write the number in nM without appending the unit.

Ask | I would be grateful if you could share the reported Kd for c1ccc(Nc2cccc3ccccc23)cc1 [1 − NPN, reference compound] .
Reply | 1650
